# System: U2OS
# experimental_protocol: Multiplex assay against U2OS
# Format: toxicity, cell-based
# protocol_conditions: human, 12 h, 10 µM, compound concentration 10 uM, replicate 2
Decide using Population Tubulin-Different-Phenotype (%): a value greater than or equal to 10% is MET, a smaller one is NOT MET.

Reference set, count: 5
# input Given Oc1c(CN2CCN(c3ccccn3)CC2)cc(Cl)c2cccnc12 , state whether its Population Tubulin-Different-Phenotype (%) is at least 10%.
# output MET

# input Determine whether measured Population Tubulin-Different-Phenotype (%) meets or exceeds 10% for Cc1ccc(F)cc1C(=O)Nc1ccc(C(=O)N2Cc3cccn3Cc3ccccc32)c(Cl)c1 [LIXIVAPTAN]
# output MET

# input Given CN1CCN(c2nc3cc(C(F)(F)F)ccc3n3cccc23)CC1.O=C(O)/C=C\C(=O)O.O=C(O)/C=C\C(=O)O , state whether its Population Tubulin-Different-Phenotype (%) is at least 10%.
# output MET

# input Population Tubulin-Different-Phenotype (%) >= 10% for COc1cc(NC(=O)CCN2CCC(OC(=O)Nc3ccccc3-c3ccccc3)CC2)c(Cl)cc1CNC[C@H](O)c1ccc(O)c2[nH]c(=O)ccc12 [BATEFENTEROL] ?
# output MET

# input Please indicate if the recorded Population Tubulin-Different-Phenotype (%) for Cc1nc2ccc(Oc3ccc(F)cc3)cc2c(=O)n1C[C@H]1CCCN(C(C)C)C1.Cl meets or exceeds 10%.
# output MET

Now, please, on to the next compound.
# input # bool: Population Tubulin-Different-Phenotype (%) of CCNC1(C(N)=O)CCN(c2ncnc3c2nc(-c2ccccc2Cl)n3-c2ccc(Cl)cc2)CC1 [OTENABANT] >= 10%
# output MET
